# target: Elastase (Pseudomonas aeruginosa (strain ATCC 15692 / PAO1 / 1C / PRS 101 / LMG12228), UniProt P14756)
# Sequence (P14756 whole entry): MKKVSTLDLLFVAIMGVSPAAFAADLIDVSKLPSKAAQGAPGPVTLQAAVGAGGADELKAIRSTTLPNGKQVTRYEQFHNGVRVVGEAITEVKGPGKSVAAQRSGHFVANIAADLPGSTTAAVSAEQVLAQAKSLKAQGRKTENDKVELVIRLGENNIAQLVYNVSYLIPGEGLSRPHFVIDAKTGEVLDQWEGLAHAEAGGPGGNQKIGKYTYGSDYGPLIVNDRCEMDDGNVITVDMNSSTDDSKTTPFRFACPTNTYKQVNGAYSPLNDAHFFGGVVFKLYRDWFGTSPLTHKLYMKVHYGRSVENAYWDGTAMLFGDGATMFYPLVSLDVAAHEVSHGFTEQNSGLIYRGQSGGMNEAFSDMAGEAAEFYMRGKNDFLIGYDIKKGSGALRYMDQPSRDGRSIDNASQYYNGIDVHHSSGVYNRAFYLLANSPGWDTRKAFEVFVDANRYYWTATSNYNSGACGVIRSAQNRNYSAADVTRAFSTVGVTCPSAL
# experimental protocol: Inhibition of Pseudomonas aeruginosa LasB by fluorimetric assay in buffer of pH 7.2
# protocol conditions: read-out: Ki
pKi: −log10 of the molar value.
// label = TRUE if pKi is not less than 4, otherwise FALSE

compound structure string | class name
CC(C)[C@H](NC(=O)[C@H](CO)NC(=O)CS)C(N)=O | FALSE
NCCCC[C@H](NC(=O)[C@H](CCCCN)NC(=O)CS)C(N)=O | FALSE
NCCCC[C@H](NC(=O)CNC(=O)CS)C(N)=O | FALSE
NC(=O)[C@H](Cc1ccccc1)NC(=O)[C@H](CO)NC(=O)CS | TRUE
NC(=O)[C@H](Cc1ccccc1)NC(=O)[C@H](Cc1c[nH]c2ccccc12)NC(=O)CS | TRUE
C[C@H](NC(=O)CS)C(=O)N[C@@H](Cc1c[nH]c2ccccc12)C(N)=O | FALSE
CSCC[C@H](NC(=O)CS)C(=O)N[C@@H](CC(=O)O)C(N)=O | TRUE
C[C@H](NC(=O)CS)C(=O)N[C@@H](CC(=O)O)C(N)=O | FALSE
CC(C)[C@H](NC(=O)CNC(=O)CS)C(N)=O | FALSE
CC(C)[C@H](NC(=O)[C@H](C)NC(=O)CS)C(N)=O | TRUE
